- System: rabbit platelet aggregation
- Experiment summary: Inhibitory effect on rabbit platelet aggregation
- Assay type: cell-based
- Details: Oryctolagus cuniculus, Platelet, read-out: Ap4A IC50, ADP (1 × 10^-5 M) induced; 10 min. pretreatment
Measured parameter: IC50 (µM)
Please state the figure in µM; there is no need to write the unit.

Query block: Fill in: IC50 of `Nc1ncnc2c1ncn2[C@@H]1O[C@H](COP(=O)(O)OP(=O)(O)OP(=O)(O)OP(=O)(O)OC[C@H]2O[C@@H](n3cnc4c(N)ncnc43)[C@H](O)[C@@H]2O)[C@@H](O)[C@H]1O` is ___
Result block: 42

====

- Tested on: rabbit platelet aggregation
- Experiment summary: Inhibitory effect on rabbit platelet aggregation
- Format: cell-based
- Details: Oryctolagus cuniculus, Platelet, read-out: Ap4A IC50, Ap3A (1 × 10^-4 M) induced; 10 min. pretreatment
Measured parameter: IC50

Query block: Fill in: IC50 of Nc1ncnc2c1ncn2[C@@H]1O[C@H](COP(=O)(O)OP(=O)(O)OP(=O)(O)OP(=O)(O)OC[C@H]2O[C@@H](n3cnc4c(N)ncnc43)[C@H](O)[C@@H]2O)[C@@H](O)[C@H]1O [Ap4A] is ___
Result block: 49.9 µM

Where do these numbers come from? They come from patent US5380715A.
